The following compounds are listed with their measured EC50 values.
measured.target: UniProt:Q9Y2J8
Sequence (Q9Y2J8 whole entry): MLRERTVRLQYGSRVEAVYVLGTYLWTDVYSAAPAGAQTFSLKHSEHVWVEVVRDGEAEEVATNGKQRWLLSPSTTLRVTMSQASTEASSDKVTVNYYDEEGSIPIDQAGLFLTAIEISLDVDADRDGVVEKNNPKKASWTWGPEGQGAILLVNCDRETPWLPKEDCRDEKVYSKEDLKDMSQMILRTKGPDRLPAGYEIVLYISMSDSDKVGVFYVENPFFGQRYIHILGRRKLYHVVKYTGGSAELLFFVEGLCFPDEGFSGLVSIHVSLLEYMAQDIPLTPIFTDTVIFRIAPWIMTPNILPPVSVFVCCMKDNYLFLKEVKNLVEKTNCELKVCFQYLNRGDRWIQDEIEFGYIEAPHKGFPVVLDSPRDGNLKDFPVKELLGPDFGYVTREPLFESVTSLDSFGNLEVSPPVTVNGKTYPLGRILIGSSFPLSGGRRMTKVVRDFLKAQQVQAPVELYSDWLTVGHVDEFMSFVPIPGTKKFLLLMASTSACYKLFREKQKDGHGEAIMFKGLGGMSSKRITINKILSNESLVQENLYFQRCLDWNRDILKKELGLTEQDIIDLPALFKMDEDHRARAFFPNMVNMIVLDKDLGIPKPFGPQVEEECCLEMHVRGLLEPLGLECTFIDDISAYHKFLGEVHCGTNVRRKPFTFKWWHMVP
assay.details: Binding affinity to human PAD2 expressed in HEK293T cells assessed as decrease in histone H3 citrulination incubated for 3 hrs in presence of ionomycin/CaCl2 by SDS-PAGE analysis
Format: cell-based

smiles.notation	EC50 / nM
COc1cccc2c1nc([C@H](CCCNC(=N)CF)NC(=O)c1cccc3c1C(=O)NC3)n2C	400
CCOc1cccc2c1nc([C@H](CCCNC(=N)CF)NC(=O)c1cccc3c1C(=O)NC3)n2C	2700
COc1ccc2c(c1)nc([C@H](CCCNC(=N)CF)NC(=O)c1cccc3c1C(=O)NC3)n2C	2100
CCn1c([C@H](CCCNC(=N)CF)NC(=O)c2cccc3c2C(=O)NC3)nc2c(OC)cccc21	2400
